target: U2B″ (human, UniProt P08579 1-225); experiment: ITC
Sequence (P08579 whole entry): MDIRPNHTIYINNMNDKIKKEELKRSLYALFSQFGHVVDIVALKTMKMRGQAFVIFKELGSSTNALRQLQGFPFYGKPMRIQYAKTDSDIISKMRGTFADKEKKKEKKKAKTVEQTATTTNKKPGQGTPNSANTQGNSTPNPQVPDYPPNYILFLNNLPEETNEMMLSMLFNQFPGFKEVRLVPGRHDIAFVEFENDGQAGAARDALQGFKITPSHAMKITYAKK
property-label: Kd (nM)
Form entry: value (nM) — number only.

// sample GGAGUUUUCCAGGACGUAUUGCAGUACCUCGUCCUGG (structured_RNA) [SLIV ITC construct] , its Kd was 2.3

The origin of these recorded values is paper PMC4067145.
